Field: soluble fraction (log2). Provide a value for each of the sequences that follow.
assay.name: soluble fraction after stress (log2 fold change); higher = more stays soluble; pooled small domains, quantitative proteomics;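 further: 20 min heating vs room temperature control held 20 min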
condition.description: stress: 75 degC
Answers are plain numbers.

{"columns": ["item.sequence", "recorded.value"],
 "data": [
  ["HMGDPYAILGLLPGASMEDVRHAWRRQAAENHPDRMLQRGAPPEFVEIAREKTAAINAAYARIREELSI", -0.433],
  ["HMRRMAYLVGQRGLAMGDFISGTGQVRIGDTVWRAEAVEGELVRTGDTVVVEGAKMTTAIVRRVM", -1.81],
  ["HMITGSIQPKNGKYYAVLNLYDHTGKRRPKWVSTGYTVKGNKKKAQEVLNELTRRYSAQLPPSK", -1.05]
]}

Note: attention shifts to another entry.
Ask: Given the sequence HMKLEKKWIEAVEKYRRYVLSTGIKHVQKPIEFENFRLGQWYADVRQSYRRGTLSKEKLLEIREINPDFPN , write its reported soluble fraction (log2).
Reply: -2.17

* * *

Field: soluble fraction (log2). Provide a value for each of the sequences that follow.
assay.name: soluble fraction after stress (log2 fold change); higher = more stays soluble; pooled small domains, quantitative proteomics
condition.description: stress: 75 degC
Give bare numbers.

Below, 6 sequences whose answers are already recorded.
{"columns": ["item.sequence", "soluble fraction (log2)"],
 "data": [
  ["HMTKTSQEDEDIMRHLDELHTRWPFLGQRKLIEELKDQGIQIGRKRLRRLMKVMGIEAIAPK", -2.12],
  ["HMDYKYYIVKEPMVVKNLELPVGTRIVYFNTSLFGDSESSRPLKEKNIYQIFFPDDKPLIWGGVPVSLIER", -2.24],
  ["HMGAPVIYELTAESAAGQRIDKYLSGQLADLSRSYLQKLLKDGGVEVNKKPVKSNYKLSEGDQIRLEVPEA", 0.0457],
  ["HMTVLPTEQDAKALVGLGEEEAAKIVEGNGWTYRIGSRDGEQFMLTEDFVTSRLTLGIEKAIVMTATI", -0.906],
  ["HMFKEVPVPDVKGMTLEEAKLALEKEGFILGKTEEAESTEVAAGKIISQNLEAGKIAKQGTSVNLVVSKGK", 0.454],
  ["HMELNFEGFYRFVRDELNVDLNAYKEKQLKRRIATVMKSSGALTLEDYSRLIANDEVIRNKFLDYITI", -3.37]
]}

# per-item lookup of soluble fraction (log2); items listed below
1. HMVTDTGAIEKVIDEVIAANPKQVQEIADQRAAGHEKPKTLGWLVGQIMKASGGKVNPAAVNEILLKKLG
2. HMTVSKLKVINYTIRNGDSLWTISRKFNVTVDKVKEWNGLSDRTLLQPGQKLTLYVDPTIQISH

Reply:
0.0887
-1.82

* * *

Field: soluble fraction (log2). Provide a value for each of the sequences that follow.
assay.name: soluble fraction after stress (log2 fold change); higher = more stays soluble; pooled small domains, quantitative proteomics
condition.description: stress: 75 degC
One number for each entry.

{"columns": ["item.sequence", "soluble fraction (log2)"],
 "data": [
  ["HMQQVIQSGQKVQLMATDGSFQVSAEGVALKNGSVGEVIGVRMPSGRVISGVVSASGAVEVR", 0.125]
]}

# per-item lookup of soluble fraction (log2); items listed below
1. HMPPDLSEAIQKRIEGKTDEALEILRKLYNEYPESTEIITMLGRTLLDAEEYALAAFRLEQALDLGG
2. HMAVFRVGDKVKSMEGMIGEVRGINGRLIQVATPYGLRDYYPHQITKVENPLAAAPAPLNEEA

Reply:
1: -0.699; 2: 0.767

Ask: Given the sequence HMEWEVHSVTVTPELSGERLDVAATALLSQFSRALVQRWIDANELTLNERPVKAKSKVRVGDLIAVKAK , write its reported soluble fraction (log2).
Reply: -1.06
